tested on: MOLT-4; test: CellTiterGlo viability assay, MOLT-4; assay type: cell-based; conditions: Homo sapiens, MOLT-4, 72 h, read-out: IC50 MOLT-4
pIC50: −log10 of the molar value.
For each of the compounds below, state its pIC50.

Ask: Which pIC50 is reported for this compound? CC(C)C[C@H](NP(=O)(OC[C@H]1O[C@@H](n2c(Cl)nc3c(N)ncnc32)C(O)C1O)Oc1ccccc1)C(=O)OCc1ccccc1 (stereo partly drawn) [V]
Result: 5.30 to 7.00

Ask: Moving on to Nc1ncnc2c1nc(Cl)n2[C@@H]1O[C@H](COP(=O)(NCC(=O)OC2CCCCC2)Oc2ccccc2)[C@@H](O)[C@H]1O (mixture of isomers) [Compound A]
Result: 4.00 to 4.82

Ask: And for C[C@H](NP(=O)(OC[C@H]1O[C@@H](n2c(Cl)nc3c(N)ncnc32)[C@H](O)[C@@H]1O)Oc1ccccc1)C(=O)OCc1ccccc1 (mixture of isomers) [C] ?
Result: 5.30 to 7.00

Ask: Queued: CCCCCOC(=O)[C@H](C)NP(=O)(OC[C@H]1O[C@@H](n2c(Cl)nc3c(N)ncnc32)C(O)C1O)Oc1cccc2ccccc12 (stereo partly drawn) [Compound E]
Result: 5.30 to 7.00

Ask: Likewise for C[C@H](NP(=O)(OC[C@H]1O[C@@H](n2c(Cl)nc3c(N)ncnc32)C(O)C1O)Oc1cccc2ccccc12)C(=O)OCc1ccccc1 (stereo partly drawn) [Compound D] ?
Result: 5.30 to 7.00

Ask: Now consider Nc1ncnc2c1nc(Cl)n2[C@@H]1O[C@H](COP(=O)(NCC(=O)OCc2ccccc2)Oc2ccccc2)[C@@H](O)[C@H]1O (mixture of isomers) [Compound B] .
Result: 5.30 to 7.00

---

system: HL-60; assay: CellTiterGlo viability assay, HL-60; assay type: cell-based; conditions: Homo sapiens, HL-60; CellTiterGlo, 72 hrs; read-out: IC50 HL-60
measuredQuantity: IC50

Ask: Return IC50 measured with HL-60 given this compound: Nc1ncnc2c1nc(Cl)n2[C@@H]1O[C@H](CO)[C@@H](O)[C@H]1O [8-chloroadenosine, 8-Chloroadenosine, reference compound]
Result: 0.1 to 5 µM

Ask: Please do the same for Nc1ncnc2c1nc(Cl)n2[C@@H]1O[C@H](COP(=O)(NCC(=O)OCc2ccccc2)NCC(=O)OCc2ccccc2)C(O)C1O (some centres unmarked) as well.
Result: 0.1 to 5 µM

---

tested on: MV4-11; assay: CellTiterGlo viability assay, MV4-11; assay type: cell-based; conditions: Homo sapiens, MV4-11; CellTiterGlo, 72 hrs; read-out: IC50 MV4-11
measuredQuantity: IC50

Ask: Consider the compound Nc1ncnc2c1nc(Cl)n2[C@@H]1O[C@H](COP(=O)(NCC(=O)OCc2ccccc2)NCC(=O)OCc2ccccc2)C(O)C1O (some centres unmarked) [Compound AC] and give its measured IC50.
Result: 0.1 to 5 µM

Ask: Next up: Nc1ncnc2c1nc(Cl)n2[C@@H]1O[C@H](CO)[C@@H](O)[C@H]1O [8-chloroadenosine, 8-Chloroadenosine, reference compound]
Result: 0.1 to 5 µM

---

system: K-562; assay: ATP ViaLight cytotoxicity assay, K-562; type: cell-based; details: Homo sapiens, K562, 72 h, with A-134974 (adenosine kinase inhibitor)
measuredQuantity: EC50 (µM)
API: value field is a number in µM; no unit string.

Ask: Requested field: EC50. Item: C[C@H](NP(=O)(OC[C@H]1O[C@@H](n2c(Cl)nc3c(N)ncnc32)C(O)C1O)Oc1cccc2ccccc12)C(=O)OCc1ccccc1 (stereo partly shown)
Result: 19.7

Origin of measurements: patent US20190375778A1
